Target: Calcium-dependent protein kinase 4 (Plasmodium falciparum (isolate 3D7))
Assay: PfCDPK4 kinase inhibitors, biochemical, TCAMS library (AID 1159588)
Conditions: recombinant PfCDPK4, Kinase-Glo ATP depletion luminescence
Entries with a potency or affinity are not part of this list. Active and inactive are the calls of the source. Cut-off not given; nearly all actives show IC50 up to about 0.91 µM.
assay.endpoint: outcome

1. COc1ccccc1C1CN(CCNC(=O)c2ncc(C)[nH]2)Cc2ccccc2O1 (stereo unspecified)    inactive
2. COc1cc(NC(=O)c2sc(-c3ccc(Cl)cc3)cc2NC(=O)c2ccncc2)ccc1OCCN1CCCC1    inactive
3. COc1ccc2nccc(NN=Cc3ccccc3F)c2c1    inactive
4. COc1cccc(OC)c1CN1CCC(N(C)CCCCCCCCCN2CCC(OC(=O)Nc3ccccc3-c3ccccc3)CC2)CC1    inactive
5. O=C(Nc1cccc(CN2CCN(Cc3cccc(O)c3)CC2)c1)c1ccc(Cl)c(Cl)c1    inactive

Hello, I would appreciate it if you could give outcome for each entry below.
1. NC(=O)c1cccc(CN2Cc3ccccc3OC3(CCN(Cc4c[nH]c5cnccc45)CC3)C2)c1
2. CCCCN(Cc1cc(Cl)c(OCC)c(OC)c1)c1ccc(C(O)(C(F)(F)F)C(F)(F)F)cc1
3. CCN(CC)CCN(Cc1ccc(-c2ccc(C(F)(F)F)cc2)cc1)C(=O)Cn1c(CCc2ccc(F)c(F)c2F)nc(=O)c2ccccc21

inactive
inactive
inactive

Hello, I would appreciate it if you could give outcome for each entry below.
1. O=C(Nc1cc(F)cc(F)c1)N1CCOC(CCN2CCC(c3ccccc3)CC2)(c2ccc(Cl)c(Cl)c2)C1 (stereo unspecified)
2. COc1ccc2nccc(N3CCN(CCNCc4ccc5c(n4)NC(=O)CS5)CC3)c2c1
3. Fc1cc(Cl)ccc1Nc1ccnc2cc(-c3ccc(CN4CCNCC4)o3)ccc12
4. COc1ccccc1NC(=O)Nc1cccc(-c2ccc(-c3nc4ccc(C(F)(F)F)cc4[nH]3)cc2)c1

["inactive", "inactive", "inactive", "inactive"]

Hello, I would appreciate it if you could give outcome for each entry below.
1. COc1ccc(S(=O)(=O)Nc2ccc(C(=O)NCc3ccc(C(F)(F)F)cc3)cc2)cc1N1CCN(CC2CC2)CC1
2. Cc1cccc2[nH]c(-c3ccc(-c4ccc(NC(=O)Nc5ccc(F)c(F)c5F)cc4)s3)nc12
3. CN1CCC(C(=O)Nc2ccc(-c3ccc(-c4nc5ccc(C(F)(F)F)cc5[nH]4)s3)cc2)CC1
4. CSc1nc2cc3c(cc2n1C(=O)c1ccc(C)cc1)OCCO3

1. inactive
2. inactive
3. inactive
4. inactive

The reported numbers originate from PubChem BioAssay.
